Molecular target: ATP-citrate synthase (Homo sapiens)
Sequence (P53396 whole entry): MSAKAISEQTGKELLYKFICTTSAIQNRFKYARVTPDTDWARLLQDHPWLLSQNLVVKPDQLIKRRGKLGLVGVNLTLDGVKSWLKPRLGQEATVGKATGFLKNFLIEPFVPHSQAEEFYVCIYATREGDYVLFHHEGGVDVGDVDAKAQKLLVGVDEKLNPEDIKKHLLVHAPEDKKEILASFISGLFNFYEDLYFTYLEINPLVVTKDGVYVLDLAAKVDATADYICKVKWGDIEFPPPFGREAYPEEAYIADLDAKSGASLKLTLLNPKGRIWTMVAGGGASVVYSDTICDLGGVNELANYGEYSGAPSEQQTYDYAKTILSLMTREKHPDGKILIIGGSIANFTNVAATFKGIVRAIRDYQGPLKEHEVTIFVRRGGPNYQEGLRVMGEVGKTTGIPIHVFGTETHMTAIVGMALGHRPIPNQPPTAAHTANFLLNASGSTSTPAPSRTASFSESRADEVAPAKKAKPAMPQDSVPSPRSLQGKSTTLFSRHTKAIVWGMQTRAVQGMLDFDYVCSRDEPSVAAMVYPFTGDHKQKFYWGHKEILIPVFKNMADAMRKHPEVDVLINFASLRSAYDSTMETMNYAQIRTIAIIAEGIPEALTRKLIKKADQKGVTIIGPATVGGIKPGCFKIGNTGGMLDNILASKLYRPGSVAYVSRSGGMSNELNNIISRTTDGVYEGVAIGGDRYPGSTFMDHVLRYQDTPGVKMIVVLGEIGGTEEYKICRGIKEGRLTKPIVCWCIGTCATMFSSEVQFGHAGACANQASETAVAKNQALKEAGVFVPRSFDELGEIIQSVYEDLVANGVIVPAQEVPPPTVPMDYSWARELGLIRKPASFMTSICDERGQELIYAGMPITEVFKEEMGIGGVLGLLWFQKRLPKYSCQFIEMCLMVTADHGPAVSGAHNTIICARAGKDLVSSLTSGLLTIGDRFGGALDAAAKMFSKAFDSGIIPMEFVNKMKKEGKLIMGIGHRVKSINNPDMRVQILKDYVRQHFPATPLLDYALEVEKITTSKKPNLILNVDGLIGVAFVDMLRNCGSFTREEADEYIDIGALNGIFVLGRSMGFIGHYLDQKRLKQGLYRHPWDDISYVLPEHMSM
quantity.name: Kd

Memo: `COC(=O)c1cc(Cl)c(O)c(S(=O)(=O)Nc2cc(-c3ccccc3)c(F)cc2F)c1` , reported Kd: 2.2 nM

----------
Biological target: ATP-citrate synthase (Homo sapiens)
quantity.name: pIC50
Please treat pIC50 as minus the base-10 logarithm of the molar concentration.

Value of measured pIC50 for the entry `COC(=O)c1cc(Cl)c(O)c(S(=O)(=O)Nc2cc(-c3ccccc3)c(F)cc2F)c1` : 8.68

----------
Target: Na(+)/citrate cotransporter (Homo sapiens, UniProt Q86YT5)
Sequence (Q86YT5 whole entry): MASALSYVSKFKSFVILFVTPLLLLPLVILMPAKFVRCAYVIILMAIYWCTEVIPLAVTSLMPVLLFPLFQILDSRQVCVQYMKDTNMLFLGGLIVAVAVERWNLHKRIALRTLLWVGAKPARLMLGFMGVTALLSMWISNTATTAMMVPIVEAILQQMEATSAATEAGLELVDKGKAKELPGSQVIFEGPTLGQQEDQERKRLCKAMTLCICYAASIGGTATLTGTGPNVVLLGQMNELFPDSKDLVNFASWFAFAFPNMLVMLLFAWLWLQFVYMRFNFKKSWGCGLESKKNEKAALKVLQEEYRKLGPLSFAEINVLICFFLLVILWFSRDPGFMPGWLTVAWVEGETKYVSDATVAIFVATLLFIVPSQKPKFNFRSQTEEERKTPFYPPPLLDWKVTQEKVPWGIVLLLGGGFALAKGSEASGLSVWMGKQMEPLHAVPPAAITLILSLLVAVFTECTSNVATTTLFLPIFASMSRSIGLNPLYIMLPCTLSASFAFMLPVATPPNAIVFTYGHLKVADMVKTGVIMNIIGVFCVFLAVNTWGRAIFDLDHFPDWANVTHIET
Test: Inhibition of recombinant human SLC13A5 in HEK293T cells
pIC50: −log10 of the molar value.
quantity.name: pIC50

# compound Cc1nc(OC(F)F)ccc1C(C)N1CCc2c(C#N)c(Cl)nc(NCC#N)c2C1 (stereo unspecified) ; its pIC50 = > 7.30

----------
Target: Na(+)/dicarboxylate cotransporter 3 (Homo sapiens, UniProt Q8WWT9)
Sequence (Q8WWT9 whole entry): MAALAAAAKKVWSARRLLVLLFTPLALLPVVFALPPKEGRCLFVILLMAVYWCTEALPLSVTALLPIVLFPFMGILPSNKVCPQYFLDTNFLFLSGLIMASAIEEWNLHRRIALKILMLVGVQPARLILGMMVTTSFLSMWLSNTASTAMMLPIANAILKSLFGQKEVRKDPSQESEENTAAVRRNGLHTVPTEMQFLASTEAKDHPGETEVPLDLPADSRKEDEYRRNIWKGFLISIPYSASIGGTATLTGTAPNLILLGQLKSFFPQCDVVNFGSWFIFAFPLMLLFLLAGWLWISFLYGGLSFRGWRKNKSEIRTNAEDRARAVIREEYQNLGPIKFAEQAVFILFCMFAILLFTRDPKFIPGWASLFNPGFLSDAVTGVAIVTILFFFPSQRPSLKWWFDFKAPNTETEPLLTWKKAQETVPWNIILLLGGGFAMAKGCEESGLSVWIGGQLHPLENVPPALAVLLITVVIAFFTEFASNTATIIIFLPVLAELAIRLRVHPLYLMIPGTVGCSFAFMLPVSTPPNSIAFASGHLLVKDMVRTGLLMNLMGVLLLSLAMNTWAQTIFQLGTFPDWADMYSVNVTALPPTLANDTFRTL
Assay: Inhibition of human SLC13A3 in HepG2 cells by measuring […] uptake
quantity.name: pIC50
pIC50 is a log-scale quantity: -log10 of the concentration expressed in molar.

Sample `O=C(Nc1cc(Cl)cc(C(F)(F)F)c1)OCCC(F)(F)F` , system: Na(+)/dicarboxylate cotransporter 3 (Homo sapiens, UniProt Q8WWT9). Its pIC50 is 6.80
